Listed compounds paired with reported inhibition at 1 µM
biological target: Des1 (Homo sapiens (Human), UniProt O15121); assay: Jurkat T cell measurement of conversion of dihydroceramide to ceramide; format: cell-based; conditions: 1 μM compound, Jurkat clone E6-1 cells; read-out: Des1 % Inhib (1 μM)
Sequence (O15121 whole entry): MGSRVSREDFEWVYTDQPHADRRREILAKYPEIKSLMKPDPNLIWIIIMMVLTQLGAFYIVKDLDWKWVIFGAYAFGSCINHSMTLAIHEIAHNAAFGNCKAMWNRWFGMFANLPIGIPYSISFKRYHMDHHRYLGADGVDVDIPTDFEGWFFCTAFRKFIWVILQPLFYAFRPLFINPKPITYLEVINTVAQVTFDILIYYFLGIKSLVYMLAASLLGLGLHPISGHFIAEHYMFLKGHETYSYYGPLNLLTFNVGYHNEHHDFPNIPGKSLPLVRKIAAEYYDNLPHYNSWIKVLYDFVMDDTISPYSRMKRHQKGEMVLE
Number in %, nothing else.

Example entries and their recorded answers appear below.
O=C(Nc1ccc(O)cn1)c1ccc2ccccc2c1 [Example 7]
79.8
COc1ccc(-c2ccc(C(=O)Nc3ccc(O)cn3)cc2)cc1 [Example 22]
95.4
CCCCCCCC(=O)Nc1ccc(O)cn1 [Example 29, N-(5-hydroxy-pyridin-2-yl)-octanamide]
95.7

# compound O=C(Nc1ccc(O)cn1)c1ccc(-c2ccc(Cl)cc2)cc1 [Example 24] ; its inhibition at 1 µM = 96.1

Field inhibition at 1 µM (entry CC(C)(C)c1ccc(C(=O)Nc2ccc(O)cn2)cc1 [Example 35] ) reads 95.7

// sample O=C(/C=C/c1ccccc1)Nc1ccc(O)cn1 [Example 8, N-(5-hydroxy-pyridin-2-yl)-cinnamide] , its inhibition at 1 µM was 85.9

Looking up COc1ccc(C(=O)Nc2ccc(O)cn2)cc1 [Example 26] , I found its inhibition at 1 µM recorded as 74.5

Quick note, inhibition at 1 µM for O=C(Nc1ccc(O)cn1)c1ccccc1 [Example 25, N-(5-hydroxy-pyridin-2-yl)-benzamide] landed at 4.44
